- ASSAY_PROTOCOL: Single oral dose (5 mg/kg) pharmacokinetics of firocoxib in koalas, plasma HPLC, non-compartmental analysis
- CONDITION_DESCRIPTION: female, plasma, po, 5 mg/kg, AUC0-inf, K5 female; single oral 5 mg/kg
READOUT_NAME: AUC(0-inf) (ng·h/mL)
Note: unit ng·h/mL is implicit; provide only the numeric part.

Prompt: Find the recorded AUC(0-inf) belonging to `CC1(C)OC(=O)C(OCC2CC2)=C1c1ccc(S(C)(=O)=O)cc1` and report it.
Response: 868

====

- ASSAY_PROTOCOL: Single oral dose (5 mg/kg) pharmacokinetics of firocoxib in koalas, plasma HPLC, non-compartmental analysis;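 note: healthy adult koalas, three per sex, anaesthetised the day before dosing for cephalic vein catheterisation, with serial blood draws and firocoxib in plasma quantified by HPLC using fluorescence detection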
- CONDITION_DESCRIPTION: female, koala, plasma, po, 5 mg/kg, Firocoxib plasma concentration, K4 female; 24 h; single oral 5 mg/kg
READOUT_NAME: concentration at 24 h (ng/mL)
Note: unit ng/mL is implicit; provide only the numeric part.

Prompt: Find the recorded concentration at 24 h belonging to CC1(C)OC(=O)C(OCC2CC2)=C1c1ccc(S(C)(=O)=O)cc1 [firocoxib] and report it.
Response: 3.7

Source listed as paper PMC12483202.
